# System: Trichophyton mentagrophytes
# assay procedure: Therapeutic experiment on trichophytosis in guinea pigs, visual observation
# Type: in vivo, guinea pigs (White Hartly-strain)
# test parameters: 1% preparation, 0.25 ml once per day, 8 consecutive days
observable: Therapeutic Effect: Thickening

O=[N+]([O-])c1cn(CC(I)=C(I)I)c(Cl)c1Cl    effective
O=[N+]([O-])c1ccn(CC(I)=C(I)I)c1 [1-(2',3',3'-triiodoallyl)-3-nitropyrrole]    effective
Clc1ccccc1C(c1ccccc1)(c1ccccc1)n1ccnc1 [chlotrimazol, 1-(O-chloro-α,α-diphenylbenzyl)imidazole, reference compound]    effective
O=[N+]([O-])c1c(Cl)cccc1-c1c[nH]cc1Cl [pyrrolnitrin, reference compound]    effective

====

# MIC listing for each entry below
# Test system: Xanthomonas campestris pv. oryzae
# assay procedure: microbe, parasite or virus in culture
# Assay type: cell-based
# test parameters: read-out: Minimal Inhibitory Conc. (MIC)
Respond numerically; units are µg/mL and should not be typed.

Q. // returns reported MIC for input "O=[N+]([O-])c1cn(CC#CI)c(Cl)c1Cl"
A. 0.39

Q. Tell me the measured MIC of "O=[N+]([O-])c1nccn1CC(I)=C(I)I" , please.
A. 12.5

Q. Need MIC of "IC(I)=C(I)Cn1ncnn1" , thanks.
A. 6.25

Q. Please look up its MIC: "O=[N+]([O-])c1ccn(CC#CI)c1"
A. 0.39

Q. Fill in: MIC of "O=[N+]([O-])c1ccn(CC(I)=C(I)I)c1" is ___
A. 25

Q. What value of MIC has been reported for the following compound? "Cc1nnn(CC(I)=C(I)I)n1"
A. 6.25

====

# Test system: Trichophyton mentagrophytes
# assay procedure: Reducing culture positive rate of skin slices from infected guinea pigs
# Type: in vivo, guinea pigs (White Hartly-strain)
# Parameters: concentration or dose not given beside the values
# test parameters: 7 days culture, after 8 days application; non-treated 100
observable: Reducing Culture Positive Rate (%)
Value expressed in %; do not type the unit.

Worked cases, answers included:
O=[N+]([O-])c1c(Cl)cccc1-c1c[nH]cc1Cl [pyrrolnitrin, reference compound]    87
O=[N+]([O-])c1cn(CC(I)=C(I)I)c(Cl)c1Cl    16.7
O=[N+]([O-])c1ccn(CC(I)=C(I)I)c1 [1-(2',3',3'-triiodoallyl)-3-nitropyrrole]    33.3

Next:
Q. Query: Reducing Culture Positive Rate; subject: Clc1ccccc1C(c1ccccc1)(c1ccccc1)n1ccnc1 [chlotrimazol, 1-(O-chloro-α,α-diphenylbenzyl)imidazole, reference compound]
A. 96

====

MIC values, listed per item
# Test system: Rhizopus nigricans S.N. 32
# assay procedure: Antifungal Activity (in Industrial Field), MIC
# Type: cell-based
# test parameters: Rhizopus stolonifer, read-out: Minimal Inhibitory Conc. (MIC)
Write the answer as a number in µg/mL, unit excluded.

Study these solved cases before continuing.
IC#CCn1ncnn1    6.25
IC#CCn1cncn1    3.13
Cc1nnn(CC(I)=C(I)I)n1    1.56

Q. I'd like to know its MIC. The compound in question is "IC#CCn1cnnn1"
A. 3.13

Q. For "IC(I)=C(I)Cn1ncnn1" , what is its reported MIC?
A. 3.13

Q. Query: MIC; subject: "IC#CCn1cccn1"
A. 1.56

====

Reported MIC for target or system Cryptococcus neoformans Cr-1, by entry.
Write the value in µg/mL as a bare number.

CC(=O)Nc1nnn(CC(I)=C(I)I)n1    100
Cc1nnn(CC(I)=C(I)I)n1    1.56
Cc1nnnn1CC(I)=C(I)I    6.25
IC#CCn1ncnn1 [2-(1'-iodopropyn-3'-yl)tetrazole]    0.78
IC(I)=C(I)Cn1ncnn1 [2-(2',3',3'-triiodoallyl)tetrazole]    0.78

Now look at this entry.
Q. Query: MIC; subject: IC(I)=C(I)Cn1cnnn1 [1-(2',3',3'-triiodoallyl)tetrazole]
A. 3.12

====

Form: system (Xanthomonas campestris pv. citri), quantity (MIC), values below.
Response body: numeric value in µg/mL, unit text excluded.

Before answering, review these 4 worked examples.
O=[N+]([O-])c1nccn1CC(I)=C(I)I    25
IC(I)=C(I)Cn1ncnn1    25
O=[N+]([O-])c1ccn(CC(I)=C(I)I)c1    50
Cc1nnn(CC(I)=C(I)I)n1    50

Pending compound:
Q. Name the reported MIC value associated with the compound "IC(I)=C(I)Cn1ccnc1"
A. 25

====

# Test system: Phricularia oryzae
Below is a list of entries, each paired with its recorded MIC value.
Don't forget the unit after the value.

Some compounds with known MIC results, for comparison:
IC(I)=C(I)Cn1ncnn1    3.13 µg/mL
O=[N+]([O-])c1cn(CC(I)=C(I)I)c(Cl)c1Cl    6.25 µg/mL
IC(I)=C(I)Cn1ccnc1    3.13 µg/mL
O=[N+]([O-])c1ccn(CC(I)=C(I)I)c1    1.56 µg/mL

Q. Which MIC is listed for "Cc1nnn(CC(I)=C(I)I)n1" ?
A. 3.13 µg/mL

====

# System: Colletotrichum lagenarium
observable: MIC (µg/mL)
I only need the number, in µg/mL, no unit after it.

Completed entries (count: 6):
IC(I)=C(I)Cn1ccnc1 [1-(2',3',3'-triiodoallyl)imidazole]    1.56
Cc1nnn(CC(I)=C(I)I)n1    0.78
O=[N+]([O-])c1nccn1CC(I)=C(I)I    0.78
O=[N+]([O-])c1ccn(CC#CI)c1 [1-(1'-iodopropyn-3'-yl)-3-nitropyrrole]    3.12
O=[N+]([O-])c1cn(CC(I)=C(I)I)c(Cl)c1Cl    1.56
O=[N+]([O-])c1ccn(CC(I)=C(I)I)c1 [1-(2',3',3'-triiodoallyl)-3-nitropyrrole]    0.39

Q. Could you share which MIC value was measured for "O=[N+]([O-])c1cn(CC#CI)c(Cl)c1Cl" ?
A. 1.56

Q. I have this compound here, IC(I)=C(I)Cn1ncnn1 [2-(2',3',3'-triiodoallyl)tetrazole] , and I need its recorded MIC.
A. 0.78

====

Reported values: MIC for Serratia marcescens MB-3848, one per item.
Numeric only. Scale: µg/mL

See these solved cases before continuing.
IC(I)=C(I)Cn1cnnn1    3.13
IC(I)=C(I)Cn1ncnn1    6.25
O=[N+]([O-])c1cn(CC(I)=C(I)I)c(Cl)c1Cl    6.25
O=[N+]([O-])c1cc(Cl)n(CC(I)=C(I)I)c1    12.5

// switching to the query compound
Q. MIC for "IC(I)=C(I)Cn1ccnc1" ?
A. 12.5

====

Below, each of the molecules is paired with its reported MIC value.
# Tested on: Penicillium luteum ATCC 9644
Value expressed in µg/mL; do not type the unit.

Examples with their reported MIC follow.
IC#CCn1cccn1 [1-(1'-iodopropyn-3'-yl)pyrazole]    0.78
IC(I)=C(I)Cn1ccnc1 [1-(2',3',3'-triiodoallyl)imidazole]    0.78
IC#CCn1cnnn1 [1-(1'-iodopropyn-3'-yl)tetrazole]    1.56
O=[N+]([O-])c1cn(CC#CI)c(Cl)c1Cl    0.78
O=[N+]([O-])c1nccn1CC(I)=C(I)I    3.13

Q. // fetch Penicillium luteum ATCC 9644 MIC for IC#CCn1cncn1 [1-(1'-iodopropyn-3'-yl)-1,2,4-triazole]
A. 3.13

Q. What reported MIC corresponds to "Cc1nnn(CC(I)=C(I)I)n1" on Penicillium luteum ATCC 9644?
A. 6.25

====

# Test system: Trichophyton metagrophytes 530324
# assay procedure: Antifungal Activity (in Medicinal Field), MIC
# Format: cell-based
# test parameters: Trichophyton metagrophytes 530324; read-out: Minimal Inhibitory Conc. (MIC)
Let's look at some compounds and their measured log10 MIC.
Transform log10 | Measure MIC | Unit µg/mL

Guide cases for log10 MIC, answers given:
Cc1nnnn1CC(I)=C(I)I    -0.11
O=[N+]([O-])c1nccn1CC(I)=C(I)I    -0.11
O=[N+]([O-])c1cn(CC#CI)c(Cl)c1Cl    -1.05

Turning to the following compound.
Q. Consider the compound "O=[N+]([O-])c1ccn(CC(I)=C(I)I)c1" and give its measured log10 MIC.
A. -0.72

====

# Tested on: Klebsiella pneumoniae PCI-602
observable: MIC
Phrase the answer as number then unit, nothing more needed.

Answered examples (3):
IC(I)=C(I)Cn1cnnn1    3.13 µg/mL
IC(I)=C(I)Cn1ncnn1    12.5 µg/mL
IC(I)=C(I)Cn1ccnc1    12.5 µg/mL

Q. Look up MIC: "O=[N+]([O-])c1nccn1CC(I)=C(I)I"
A. 6.25 µg/mL

====

# Test system: Mucor spinescens IAM Mu3
Property: MIC; scope: individual molecules
Hi! Could you send only the number? It should be in µg/mL, unit omitted.

Q. Param readout= MIC; system= Mucor spinescens IAM Mu3; entry= IC(I)=C(I)Cn1ncnn1 [2-(2',3',3'-triiodoallyl)tetrazole] ; returns value.
A. 1.56
